FYI, the data here is from patent US7098199B2.

# system: oestrone sulphatase (Homo sapiens, UniProt P08842)
# Sequence (P08842 22-583): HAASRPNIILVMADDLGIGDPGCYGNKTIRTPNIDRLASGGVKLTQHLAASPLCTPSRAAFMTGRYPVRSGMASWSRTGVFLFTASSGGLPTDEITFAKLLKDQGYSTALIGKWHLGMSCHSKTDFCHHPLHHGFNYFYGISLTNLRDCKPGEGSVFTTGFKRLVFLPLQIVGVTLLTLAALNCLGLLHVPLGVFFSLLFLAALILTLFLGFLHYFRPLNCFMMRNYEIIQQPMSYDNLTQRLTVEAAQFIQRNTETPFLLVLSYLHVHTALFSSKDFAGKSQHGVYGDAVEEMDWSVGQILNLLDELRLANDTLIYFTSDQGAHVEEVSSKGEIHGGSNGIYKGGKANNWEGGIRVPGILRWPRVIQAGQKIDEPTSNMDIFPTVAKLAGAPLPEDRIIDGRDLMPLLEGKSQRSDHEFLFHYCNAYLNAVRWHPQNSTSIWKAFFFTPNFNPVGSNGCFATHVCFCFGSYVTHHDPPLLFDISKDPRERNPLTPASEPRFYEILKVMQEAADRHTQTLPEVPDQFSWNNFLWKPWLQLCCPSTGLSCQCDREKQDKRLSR
# condition: concentration tested 1 mM (so in the source)
Flag rule - % Inhibition (Mean) Placental Microsomes less than 50% flags TRUE; the remaining entries get FALSE.

# compound, label_class
records = [
    ("C[C@@]12CCC[C@H]1[C@@H]1CCc3cc(OS(N)(=O)=O)ccc3[C@H]1CC2 [NOMATE, 17-deoxy oestrone-3-O-sulphamate]", "FALSE"),
    ("C=CCc1cc2c(cc1OS(N)(=O)=O)CC[C@@H]1[C@@H]2CC[C@]2(C)C(=O)CC[C@@H]12 [2-allyl EMATE]", "TRUE"),
    ("C=CCc1c(OS(N)(=O)=O)ccc2c1CC[C@@H]1[C@@H]2CC[C@]2(C)C(=O)CC[C@@H]12 [4-allyl EMATE]", "TRUE"),
    ("CCCc1c(OS(N)(=O)=O)ccc2c1CC[C@@H]1[C@@H]2CC[C@]2(C)C(=O)CC[C@@H]12 [4-n-propyl EMATE]", "TRUE"),
    ("CCCc1cc2c(cc1OS(N)(=O)=O)CC[C@@H]1[C@@H]2CC[C@]2(C)C(=O)CC[C@@H]12 [2-n-propyl EMATE]", "TRUE"),
]
